TESTED TARGET: CRF-R1
Sequence (P34998 24-415): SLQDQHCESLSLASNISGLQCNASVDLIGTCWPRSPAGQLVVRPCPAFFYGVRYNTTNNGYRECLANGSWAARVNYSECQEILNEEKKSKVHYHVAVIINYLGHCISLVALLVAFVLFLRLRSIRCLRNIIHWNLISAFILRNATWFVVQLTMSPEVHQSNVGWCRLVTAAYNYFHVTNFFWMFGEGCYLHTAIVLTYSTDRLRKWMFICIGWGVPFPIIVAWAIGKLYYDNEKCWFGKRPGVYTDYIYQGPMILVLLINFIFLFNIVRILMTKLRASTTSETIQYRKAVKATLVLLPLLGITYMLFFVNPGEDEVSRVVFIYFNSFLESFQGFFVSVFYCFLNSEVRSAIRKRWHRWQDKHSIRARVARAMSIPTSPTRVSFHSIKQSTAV
ASSAY REMARKS: displacement of 125I-Sauvagine, membranes of CHO cells expressing CRFR1, filtration assay
No end group written: not given here.
MEASURED PROPERTY: pKi
When answering, recall that pKi equals minus log10 of the concentration in mol/L, and write that number alone.

Please indicate pKi recorded for IVLSLDVPIGLLQILLEQARARAAREQATTNARILARVGHC-NH2 [human urocortin-related peptide]
7.11
